Numbers sourced from ChEMBL document CHEMBL5058577.

test system: U2OS; experiment: Multiplex assay against U2OS; assay type: toxicity, cell-based; conditions: human, 48 h, 10 µM, compound concentration 10 uM, replicate 1
In plain terms, low Population Fragmented Nuclei (%), meaning strictly below 20%, gives satisfied, and everything else gives not satisfied.

compound	class name
COc1cc2nc(N3CCN(C(=O)COc4c(OC)cccc4C(C)C)CC3)nc(N)c2cc1OC.Cl.Cl	not satisfied
COc1cc(OC2CCN(C(C)=O)CC2)ccc1C(=O)N1CCC(N2C(=O)OCc3ccccc32)CC1	satisfied
Cc1cc(-c2ccc3c(c2)CC[C@H]3N2CC3(CCN(C(=O)Cc4cn5cc(C)sc5n4)CC3)C2)ncn1	satisfied
CCc1nn2c(C)cc(C)nc2c1Cc1ccc(-c2nnc(C3CCNCC3)o2)cc1	not satisfied
CC(C)(O)C(=O)N1CCN(c2ccc(C(F)(F)F)c(C3=C(c4c[nH]c5ccccc45)C(=O)NC3=O)c2)CC1	not satisfied
CCn1c(-c2nc3cc(C(=O)N4CCCC(N)C4)ccc3n2C)cc2ccccc21.Cl (stereo not drawn)	not satisfied
O=C(O)CCC/C=C\CC1C(O)CC(O)C1/C=C/C(O)COc1cccc(Cl)c1 (stereo not drawn)	satisfied
O=c1nc2[nH]c3ccccc3nc-2c(=O)[nH]1	not satisfied
COCCn1c(C)c(C)s/c1=N\C(=O)C1C(C)(C)C1(C)C	not satisfied
C[C@@H]1CC(=O)Nc2cccc(-c3ccc4c(c3)c(-c3cnn(C)c3)nn4C)c2N1	not satisfied
CN1CCC(C(=O)c2cccc(NC(=O)c3c(F)cc(F)cc3F)n2)CC1	satisfied
Cl.Cl.OCCOCCN1CCN(C(c2ccccc2)c2ccc(Cl)cc2)CC1 (stereo not drawn) [HYDROXYZINE HYDROCHLORIDE]	satisfied
N[C@](CC1c2ccccc2Oc2ccccc21)(C(=O)O)[C@H]1C[C@@H]1C(=O)O	satisfied
COC(c1ccccc1)(c1ccccc1)[C@H](Oc1nc(C)cc(C)n1)C(=O)O	not satisfied
